- Tested on: Escherichia coli
- Assay comment: Antibacterial activity against Escherichia coli ATCC 8099 assessed as growth inhibition after 24 hrs by liquid dilution method
- Assay type: functional
- Test settings: ATCC 8099, 24 h
Rule for this label: criterion met means MIC is less than 100 µg/mL; criterion not met means MIC is at least 100 µg/mL.

> print(dat)
                                smiles.data         class.name
1  Cc1ccc(Nc2ccc(Nc3c(Cl)c(Cl)c(C#N)c(Cl)c3C#N)c3nc[nH]c(=O)c23)cc1C      criterion met
2        Cc1ccccc1Nc1ccc(N)c2nc[nH]c(=O)c12  criterion not met
3  N#Cc1c(Cl)c(Cl)c(Nc2ccccc2Nc2ccc([N+](=O)[O-])c3nc[nH]c(=O)c23)c(C#N)c1Cl  criterion not met
4         Nc1ccc(Nc2ccccc2)c2c(=O)[nH]cnc12  criterion not met
5  Cc1ccc(Nc2c(Cl)c(Cl)c(C#N)c(Cl)c2C#N)c(Nc2ccc([N+](=O)[O-])c3nc[nH]c(=O)c23)c1  criterion not met
6  Cc1cccc(Nc2ccc(Nc3c(Cl)c(Cl)c(C#N)c(Cl)c3C#N)c3nc[nH]c(=O)c23)c1  criterion not met
7  Cc1cc(C)cc(Nc2ccc(Nc3c(Cl)c(Cl)c(C#N)c(Cl)c3C#N)c3nc[nH]c(=O)c23)c1      criterion met
8  Cc1ccc(Nc2ccc(Nc3c(Cl)c(Cl)c(C#N)c(Cl)c3C#N)c3nc[nH]c(=O)c23)cc1  criterion not met
9  Cc1ccccc1Nc1ccc(Nc2c(Cl)c(Cl)c(C#N)c(Cl)c2C#N)c2nc[nH]c(=O)c12  criterion not met

These entries and their values trace back to ChEMBL document CHEMBL2434951.
